Molecular target: partially purified rat brain farnesyl protein transferase (FPT) (Rattus norvegicus, UniProt Q02293+Q04631)
Construct: partially purified rat brain farnesyl protein transferase (FPT)
Sequence (Q02293 whole entry, one chain of several): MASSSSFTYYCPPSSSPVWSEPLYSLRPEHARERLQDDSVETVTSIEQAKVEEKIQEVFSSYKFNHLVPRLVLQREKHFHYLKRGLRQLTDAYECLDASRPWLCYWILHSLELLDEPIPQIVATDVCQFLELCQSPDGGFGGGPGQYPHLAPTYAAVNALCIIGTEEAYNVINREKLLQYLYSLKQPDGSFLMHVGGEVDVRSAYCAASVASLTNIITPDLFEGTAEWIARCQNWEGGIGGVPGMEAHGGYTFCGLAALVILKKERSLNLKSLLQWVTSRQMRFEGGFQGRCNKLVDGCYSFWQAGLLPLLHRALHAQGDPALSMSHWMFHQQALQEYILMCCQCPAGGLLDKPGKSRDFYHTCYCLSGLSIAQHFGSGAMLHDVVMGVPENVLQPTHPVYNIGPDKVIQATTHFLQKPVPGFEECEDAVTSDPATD
Test: In vitro enzyme assay: inhibition of Ras-CVLS farnesylation by farnesyl protein transferase (FPT)
Conditions: H-ras (Ras-CVLS) substrate; methods of WO 95/10515 or WO 95/10516
metric: IC50 (nM)

- O=C(CON=C1CCOCC1)N1CCC([C@H]2c3ncc(Br)cc3CCc3cc(Cl)cc(Br)c32)CC1: 12
- CC(=O)NOCC(=O)N1CCC([C@H]2c3ncc(Br)cc3CCc3cc(Cl)cc(Br)c32)CC1: 31
- C/C(=N\OCC(=O)N1CCC([C@H]2c3ncc(Br)cc3CCc3cc(Cl)cc(Br)c32)CC1)c1cccs1: 150
- O=C(CON=C1CCC2(CC1)OCCO2)N1CCC([C@H]2c3ncc(Br)cc3CCc3cc(Cl)cc(Br)c32)CC1: 24
- COc1ccc(/C(C)=N/OCC(=O)N2CCC([C@H]3c4ncc(Br)cc4CCc4cc(Cl)cc(Br)c43)CC2)cc1: 180
- CC(C)=NOCC(=O)N1CCC([C@H]2c3ncc(Br)cc3CCc3cc(Cl)cc(Br)c32)CC1: 6.5

* * *

Molecular target: partially purified rat brain farnesyl protein transferase (FPT) (Rattus norvegicus, UniProt Q02293+Q04631)
Construct: partially purified rat brain farnesyl protein transferase (FPT)
Assay: In vitro enzyme assay: inhibition of Ras-CVLS farnesylation by farnesyl protein transferase (FPT)
Settings: H-ras (Ras-CVLS) substrate; methods of WO 95/10515 or WO 95/10516
pIC50: −log10 of the molar value.
pIC50 below 7 gives no; pIC50 at or above it gives yes.

* CC(C)=NOCCC(=O)N1CCC([C@H]2c3ncc(Br)cc3CCc3cc(Cl)cc(Br)c32)CC1 | yes
* O=C(CO/N=C/c1cc[n+]([O-])cc1)N1CCC([C@H]2c3ncc(Br)cc3CCc3cc(Cl)cc(Br)c32)CC1 | yes
* O=C(CON=C1CCSCC1)N1CCC([C@H]2c3ncc(Br)cc3CCc3cc(Cl)cc(Br)c32)CC1 | yes
* O=C(CON=C1CCCCC1)N1CCC([C@H]2c3ncc(Br)cc3CCc3cc(Cl)cc(Br)c32)CC1 | yes
* CC(C)(C)OC(=O)NOCC(=O)N1CCC([C@H]2c3ncc(Br)cc3CCc3cc(Cl)cc(Br)c32)CC1 | no
* O=C(CO/N=C/c1ccccc1O)N1CCC([C@H]2c3ncc(Br)cc3CCc3cc(Cl)cc(Br)c32)CC1 | no

* * *

Tested on: Ras processing in COS cells
Experiment: Cell-based assay: inhibition of Ras processing in COS cells
pIC50: −log10 of the molar value.
metric: pIC50

- O=C(CO/N=C/c1cc[n+]([O-])cc1)N1CCC([C@H]2c3ncc(Br)cc3CCc3cc(Cl)cc(Br)c32)CC1 [Example 6]: 6.16

Hello, the source for this data is patent EP0991643B1, in case you need it.
